# system.under.test: immobilized Aβ fibrils (Homo sapiens)
# experimental.details: FAC-MS assay of free Aβ monomer (indicator) binding to immobilized Aβ fibrils in the presence of test compounds
# experimental.parameters: FAC-MS screen; shift of free Aβ monomer breakthrough on immobilized Aβ fibrils in presence of compound; scale not given
quantity.kind: Aβ Shift

Form entry - test system: immobilized Aβ fibrils (Homo sapiens); read-out: Aβ Shift; compound: COC(=O)C1(C)CC2(C)CC(C)(C1)C(=O)N(C)C2=O (stereo not drawn)
1

Form entry - test system: immobilized Aβ fibrils (Homo sapiens); read-out: Aβ Shift; compound: CC1CC(C)(C(=O)O)CCC1(C)C (stereo not drawn)
0

Form entry - test system: immobilized Aβ fibrils (Homo sapiens); read-out: Aβ Shift; compound: CCCCCCCCC(=O)NC1CC(C)CC(C)(C)C1 (stereo not drawn)
0

Form entry - test system: immobilized Aβ fibrils (Homo sapiens); read-out: Aβ Shift; compound: CC1CC(NN(C)C)C(C#N)(C#N)C(C)C1(C#N)C#N (stereo not drawn)
2

Form entry - test system: immobilized Aβ fibrils (Homo sapiens); read-out: Aβ Shift; compound: CC1CCCC(N2CNC(=S)NC2)C1C (stereo not drawn)
2

Form entry - test system: immobilized Aβ fibrils (Homo sapiens); read-out: Aβ Shift; compound: CC12CC3CC(C)(C1)CC(C(=O)Nc1nccs1)(C3)C2
1

Form entry - test system: immobilized Aβ fibrils (Homo sapiens); read-out: Aβ Shift; compound: O=C(O)C12CC3CC(C(=O)O)(C1)CC(C(=O)O)(C3)C2
2

Form entry - test system: immobilized Aβ fibrils (Homo sapiens); read-out: Aβ Shift; compound: CC1CCC(C(C)C)C(OC(=O)CSC#N)C1 (stereo not drawn)
1

Form entry - test system: immobilized Aβ fibrils (Homo sapiens); read-out: Aβ Shift; compound: CC12CC3CC(O)(C1)CC(O)(C3)C2
1

Form entry - test system: immobilized Aβ fibrils (Homo sapiens); read-out: Aβ Shift; compound: CC12CC3(C)CC(C)(C1)CC(C(N)=O)(C2)C3
1

Form entry - test system: immobilized Aβ fibrils (Homo sapiens); read-out: Aβ Shift; compound: CC(C)(C)C(=O)O[C@@H]1[C@@H](OC(=O)C(C)(C)C)[C@H](OC(=O)C(C)(C)C)[C@H](O)[C@H](OC(=O)C(C)(C)C)[C@H]1OC(=O)C(C)(C)C
5

Form entry - test system: immobilized Aβ fibrils (Homo sapiens); read-out: Aβ Shift; compound: Cc1cc[n+](CC(=O)OC2CC(C)CCC2C(C)C)cc1 (stereo not drawn)
1

Form entry - test system: immobilized Aβ fibrils (Homo sapiens); read-out: Aβ Shift; compound: CCC(=O)O[C@H]1[C@H](OC(=O)CC)[C@@H](OC(=O)CC)[C@H](OC(=O)CC)[C@@H](OC(=O)CC)[C@H]1OC(=O)CC
4

Form entry - test system: immobilized Aβ fibrils (Homo sapiens); read-out: Aβ Shift; compound: CC1CCCC(NC(=O)c2cc3sccc3n2C)C1C (stereo not drawn)
2

Form entry - test system: immobilized Aβ fibrils (Homo sapiens); read-out: Aβ Shift; compound: CC1CC(C(=O)O)CC(C(=O)O)C1 (stereo not drawn)
0

Form entry - test system: immobilized Aβ fibrils (Homo sapiens); read-out: Aβ Shift; compound: CC12CC3CC(C)(C1)CC(C(Cl)C(=O)O)(C3)C2 (stereo not drawn)
1

Form entry - test system: immobilized Aβ fibrils (Homo sapiens); read-out: Aβ Shift; compound: CC12CC3CC(C)(C1)CC(CN1CCOCC1)(C3)C2
1

Form entry - test system: immobilized Aβ fibrils (Homo sapiens); read-out: Aβ Shift; compound: CC12CC3CC(O)(C1)CC(C(=O)O)(C3)C2 (stereo not drawn)
1

Form entry - test system: immobilized Aβ fibrils (Homo sapiens); read-out: Aβ Shift; compound: CC1CCN(CC(O)COC2CC(C)CC(C)(C)C2)CC1 (stereo not drawn)
0

Form entry - test system: immobilized Aβ fibrils (Homo sapiens); read-out: Aβ Shift; compound: CC(=O)O[C@H]1[C@@H](OC(=O)CC(C)C)[C@H](OC(=O)CC(C)C)[C@@H](OC(=O)CC(C)C)[C@H](OC(=O)CC(C)C)[C@H]1OC(=O)CC(C)C
3

Form entry - test system: immobilized Aβ fibrils (Homo sapiens); read-out: Aβ Shift; compound: CC(=O)O[C@@H]1[C@@H](OC(=O)C(C)(C)C)[C@H](OC(=O)C(C)(C)C)[C@H](OC(C)=O)[C@H](OC(=O)C(C)(C)C)[C@H]1OC(=O)C(C)(C)C
4

---

# system.under.test: immobilized Aβ fibrils (Homo sapiens)
# experimental.details: FAC-MS assay of free Aβ monomer (indicator) binding to immobilized Aβ fibrils in the presence of test compounds
# experimental.parameters: FAC-MS screen; shift of free Aβ monomer breakthrough on immobilized Aβ fibrils in presence of compound; scale not given
Kindly state Aβ Shift for each of the entries shown.
Reply briefly: the number, and no unit.

Given the compound CC1CCC(C(C)C)C(OC(=O)NN)C1 (stereo not drawn) , what is its reported Aβ Shift?
1

Given the compound CC1CCCC(NC(=O)Nc2cccs2)C1C (stereo not drawn) , what is its reported Aβ Shift?
2

Given the compound CC1CCCC(NS(=O)(=O)c2cccs2)C1C (stereo not drawn) , what is its reported Aβ Shift?
1

Given the compound CC1CCCC(N/C=C2\C(=O)Nc3ccccc32)C1C (stereo not drawn) , what is its reported Aβ Shift?
2

Given the compound CC1CC(NC(=O)C2(C)CC2(Cl)Cl)CC(C)(C)C1 (stereo not drawn) , what is its reported Aβ Shift?
0

Given the compound CC12CC3(C)CC(C)(C1)CC(C(=O)NC(C)(C)C)(C2)C3 , what is its reported Aβ Shift?
2

Given the compound CC(O)C#CC1(O)C(C)CCCC1(C)C (stereo not drawn) , what is its reported Aβ Shift?
1

Given the compound CCC12CC3CC(O)(CC(O)(C3)C1)C2 , what is its reported Aβ Shift?
1

Given the compound CC1CCC(C(C)CS)CC1S (stereo not drawn) , what is its reported Aβ Shift?
1

Given the compound CC1CCC(C(C)C)C(OCC(O)CNC(C)C)C1 (stereo not drawn) , what is its reported Aβ Shift?
1

Given the compound Cc1cccc(NC(=O)C23CC4CC(C)(CC(C)(C4)C2)C3)c1 , what is its reported Aβ Shift?
2

Given the compound C/C(=N\O)C(=O)OC1CC(C)CCC1C(C)C (stereo not drawn) , what is its reported Aβ Shift?
1

Given the compound CC1CCC(C(C)C)C(OC(=O)NC(=O)C(F)(F)F)C1 (stereo not drawn) , what is its reported Aβ Shift?
2

Given the compound CC12CC3(C)CC(C)(C1)CC(C(=O)NCCO)(C2)C3 , what is its reported Aβ Shift?
2

Given the compound CC1CCC(C(C)C)C(OC(=O)C2C3CCCCC32)C1 (stereo not drawn) , what is its reported Aβ Shift?
0

Given the compound CCCNC(=O)C12CC3(C)CC(C)(CC(C)(C3)C1)C2 , what is its reported Aβ Shift?
1

Given the compound CC1(C)CC2(C)CC3=C([C@H](CO)C(C)(C)C3)C(CO)(C1)C2 (stereo partly drawn) , what is its reported Aβ Shift?
0

Given the compound CC1CCC(C(C)C)C(OCCC[N+](C)(C)C)C1 (stereo not drawn) , what is its reported Aβ Shift?
2

Given the compound Nc1ncnc2c1ncn2C1CCC(CO)C(O)C1 (stereo not drawn) , what is its reported Aβ Shift?
1

Given the compound C=CC1CCC(O)C(O)C1 (stereo not drawn) , what is its reported Aβ Shift?
1

Given the compound CC(N)C12CC3CC(C)(CC(C)(C3)C1)C2 (stereo not drawn) , what is its reported Aβ Shift?
0

Given the compound CC1CCCC(NC(=O)CCC2CCCCC2)C1C (stereo not drawn) , what is its reported Aβ Shift?
0

Given the compound CC1(C)CC(=O)C2=C(C1)CC1(C)CC(C)(C)CC2(O)C1 (stereo not drawn) , what is its reported Aβ Shift?
0

Given the compound CC12CC3CC(C)(C1)CC(N)(C3)C2 , what is its reported Aβ Shift?
2

Given the compound COC(=O)C12CC3(C)CC(C)(CC(C)(C3)C1)C2 , what is its reported Aβ Shift?
1

Given the compound CC(=O)NC12CC3(C)CC(C)(CC(C)(C3)C1)C2 , what is its reported Aβ Shift?
0

Given the compound CC(C)C(=O)O[C@H]1[C@H](OC(=O)C(C)C)[C@@H](OC(=O)C(C)C)[C@H](OC(=O)C(C)C)[C@@H](OC(=O)C(C)C)[C@H]1OC(=O)C(C)C , what is its reported Aβ Shift?
5

---

# system.under.test: immobilized Aβ fibrils (Homo sapiens, UniProt P05067)
# Sequence (P05067 672-713 limits assumed): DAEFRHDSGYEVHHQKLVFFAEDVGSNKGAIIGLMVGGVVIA
# experimental.details: FAC-MS assay of free Aβ monomer (indicator) binding to immobilized Aβ fibrils in the presence of test compounds
# experimental.parameters: FAC-MS % shift of breakthrough time of free Aβ1-42 monomer (1 μM) on immobilized Aβ fibrils; compounds 1-10 μM in 20 mM NH4OAc, 1% DMSO; void marker M3
Structures can show the parent of a compound that is named as a salt.
Assign labels as follows, please: True for % of Shift below 10%; False for % of Shift equal to or exceeding 10%.

Quick check: % of Shift of [H]/N=C(/N)N[C@H]1[C@H](O)[C@@H](O)[C@H](O[C@@H]2O[C@@H](C)[C@](O)(C=O)[C@H]2O[C@@H]2O[C@@H](CO)[C@H](O)[C@@H](O)[C@@H]2NC)[C@@H](N/C(N)=N\[H])[C@@H]1O [Compound 56501, Streptomycin sulfate, reference compound] under 10%?
True

Quick check: % of Shift of CO[C@H]1[C@H](O)[C@@H](O)[C@@H](O)[C@H](O)[C@@H]1O [D-Pinitol, D-pinitol, reference compound] under 10%?
True

Quick check: % of Shift of O[C@H]1[C@H](O)[C@@H](O)[C@H](O)[C@@H](O)[C@@H]1O [AZD-103, scyllo-inositol, reference compound] under 10%?
False

Quick check: % of Shift of O=P(O)(O)O[C@@H]1C(O)[C@@H](OP(=O)(O)O)[C@@H](O)C(O)[C@H]1O (stereo partly drawn) [Compound I-3139, D-Myo-inositol-2,4-bis-phosphate, reference compound] under 10%?
False

Quick check: % of Shift of O=C(/C=C/c1ccc(O)c(O)c1)O[C@@H]1C[C@](O)(C(=O)O)C[C@@H](O)[C@H]1O [Compound C-3878, Chlorogenic acid, reference compound] under 10%?
True

Quick check: % of Shift of O[C@H]1[C@H](O)[C@@H](O)[C@H](O)[C@@H](O)[C@H]1O [Myo, myo-inositol, reference compound] under 10%?
False

Where do these numbers come from? They come from patent US20110028719A1.
